- subject.of.test: BRD4(1) bromodomain (Homo sapiens, UniProt O60885)
- Construct: final concentrations of His-BRD4(1) at 20 nM
- protocol.text: AlphaScreen in vitro binding assay with BRD4
- assay.conditions: isolated BRD4 bromodomain, means of at least two determinations
I'd appreciate it if you marked entries label 1 when IC50 is lower than 6 µM and label 0 when it is not.

QUERY: Below 6 µM on IC50? Entry COc1ccc(CCc2nc3cc(-c4c(C)noc4C)ccn3c2NCCN2CCOCC2)cc1
RESULT: label 1

QUERY: Below 6 µM on IC50? Entry COc1ccc(CCc2nc3cc(-c4c(C)noc4C)ccn3c2N[C@H](C)c2ccccc2)cc1
RESULT: label 0

QUERY: Below 6 µM on IC50? Entry COc1ccc(CCc2nc3cc(-c4c(C)noc4C)ccn3c2NC2CCCCC2)cc1Cl
RESULT: label 1

QUERY: Below 6 µM on IC50? Entry Cc1noc(C)c1-c1ccn2c(NC3CCCCC3)c(CCc3ccccc3)nc2c1
RESULT: label 0

QUERY: Below 6 µM on IC50? Entry CCOc1ccc(CCc2nc3cc(-c4c(C)noc4C)ccn3c2NC(C)(C)CC(C)(C)C)cc1
RESULT: label 0

QUERY: Below 6 µM on IC50? Entry COc1ccc(-c2nc3cc(-c4c(C)noc4C)ccn3c2NCC(=O)OC(C)(C)C)cc1
RESULT: label 1

QUERY: Below 6 µM on IC50? Entry COc1ccc(CCc2nc3cc(-c4c(C)noc4C)ccn3c2Nc2ccc(Cl)cc2)cc1
RESULT: label 0

QUERY: Below 6 µM on IC50? Entry Cc1noc(C)c1-c1ccn2c(NC(C)(C)CC(C)(C)C)c(CCc3ccccc3)nc2c1
RESULT: label 1

QUERY: Below 6 µM on IC50? Entry CN1Cc2cc(-c3ccn4c(NC5CCCCC5)c(CCc5ccccc5)nc4c3)ccc2NC1=O
RESULT: label 0

QUERY: Below 6 µM on IC50? Entry CCOc1ccc(CCc2nc3cc(-c4c(C)noc4C)ccn3c2NC2CCCCC2)cc1
RESULT: label 0

QUERY: Below 6 µM on IC50? Entry Cc1noc(C)c1-c1ccn2c(NC(C)(C)C)c(CCc3ccccc3)nc2c1
RESULT: label 1

QUERY: Below 6 µM on IC50? Entry COc1ccc(CCc2nc3cc(-c4c(C)noc4C)ccn3c2NC(C)C)cc1
RESULT: label 0

QUERY: Below 6 µM on IC50? Entry COc1ccc(CCc2nc3cc(-c4c(C)noc4C)ccn3c2NCc2ccccc2)cc1
RESULT: label 0

QUERY: Below 6 µM on IC50? Entry Cc1noc2ccc(-c3ccn4c(NC5CCCCC5)c(CCc5ccccc5)nc4c3)cc12
RESULT: label 1

QUERY: Below 6 µM on IC50? Entry Cc1noc(C)c1-c1ccn2c(NC34CC5CC(CC(C5)C3)C4)c(CCc3ccccc3)nc2c1
RESULT: label 1

QUERY: Below 6 µM on IC50? Entry CCCOc1ccc(CCc2nc3cc(-c4c(C)noc4C)ccn3c2NC2CCCCC2)cc1
RESULT: label 0

QUERY: Below 6 µM on IC50? Entry COc1ccc(Cc2nc3cc(-c4c(C)noc4C)ccn3c2NC2CCCCC2)cc1
RESULT: label 0

---

- subject.of.test: CBP bromodomain (Homo sapiens, UniProt Q92793)
- Construct: docked complex of Compound 21 with CBP bromodomain
- Sequence (Q92793 1085-1192 limits assumed): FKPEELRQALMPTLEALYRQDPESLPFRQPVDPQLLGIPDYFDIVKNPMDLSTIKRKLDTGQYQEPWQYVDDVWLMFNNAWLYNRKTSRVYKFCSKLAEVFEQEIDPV
- protocol.text: AlphaScreen in vitro binding assay with CBP
- assay.conditions: AlphaScreen, isolated CBP bromodomain; means of at least two determinations
measure.name: IC50 (µM)
Report the value in µM with no unit label.

QUERY: GET /values?readout=IC50&item= COc1ccc(CCc2nc3cc(-c4c(C)noc4C)ccn3c2NC(C)C)cc1OC
RESULT: 3.52

QUERY: GET /values?readout=IC50&item= Cc1noc(C)c1-c1ccn2c(NC34CC5CC(CC(C5)C3)C4)c(CCc3ccccc3)nc2c1
RESULT: 0.507

QUERY: GET /values?readout=IC50&item= COc1ccc(-c2nc3cc(C)cc(C)n3c2NC(C)(C)CC(C)(C)C)cc1
RESULT: 16.3

QUERY: GET /values?readout=IC50&item= COc1ccc(CCc2nc3cc(-c4c(C)noc4C)ccn3c2NC(C)(C)C)cc1
RESULT: 2.34

QUERY: GET /values?readout=IC50&item= COc1ccc(CCCc2nc3cc(-c4c(C)noc4C)ccn3c2NC2CCCCC2)cc1
RESULT: 4.95

QUERY: GET /values?readout=IC50&item= Cc1noc(C)c1-c1ccn2c(NC3CCCCC3)c(CCc3ccc(OC(C)C)cc3)nc2c1
RESULT: 0.737

QUERY: GET /values?readout=IC50&item= CN1Cc2cc(-c3ccn4c(NC5CCCCC5)c(CCc5ccccc5)nc4c3)ccc2NC1=O
RESULT: 8.12

QUERY: GET /values?readout=IC50&item= COc1ccc(CCc2nc3cc(-c4c(C)noc4C)ccn3c2NC2CCCCC2)cc1
RESULT: 0.159
